Assay: Thiol cleavage of prodrugs with BnSH
Assay type: physicochemical
Conditions: BnSH (100 equiv) and NaHCO3 (100 equiv) in MeOH
assay metric: half-life (h)
Numbers only, in h.

Recorded half-life for CC(C)(C)OC(=O)NOc1cc2c(c3ccccc13)C(CCl)CN2C(=O)c1cc2cc(NC(=O)c3cc4ccccc4[nH]3)ccc2[nH]1 (stereo not shown) [compound 5] , please?
6

// provenance: paper PMC2974002
